- Method description: NCI Yeast Anticancer Drug Screen. Data for the sgs1 mgt1 strain (AID 161);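 also: 0% = growth of cultures given vehicle only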
- Assay context: S. cerevisiae sgs1 mgt1 strain, hits give high values; at 50.0 µM unless noted
This is part of a sample that, as a whole, favours compounds with a hit. Of some 79,000 tested, about 15% had one in any assay.
Catalogue of compounds with associated growth inhibition
Measure: growth inhibition (%)

• O=C(CC(=O)Nc1ccccc1Cl)NNC(c1cc(N=Nc2ccc(Br)cc2)ccc1O)P(O)O (stereo not given) = 16.6
• COc1ccc(OCc2ccc(OC)c(OC)c2)cc1 = -11.2
• COc1ccc2c(c1)OC[C@@H]1c3cc(NC(=O)c4ccccc4)c(OCc4ccccc4)cc3N(S(=O)(=O)c3ccccc3)[C@H]21 = -2.1
• NC(=S)C(=S)N=Cc1c(O)c2ccccc2oc1=O = 63.1
• Cc1nc2c(cnn2C)c(=O)n1C(C)C = 3.8

----------
Catalogue of compounds with associated growth inhibition
- Method description: NCI Yeast Anticancer Drug Screen. Data for the sgs1 mgt1 strain (AID 161);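 also: 0% = growth of cultures given vehicle only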
- Assay context: S. cerevisiae sgs1 mgt1 strain, hits give high values; at 50.0 µM unless noted
About 79,000 compounds went through this panel and 15% of them were active in at least one assay; those are over-represented in the sample as a whole.
Measure: growth inhibition (%)

- O=[N+]([O-])c1cc(F)ccc1S(=O)(=O)c1ccccc1: 7.8
- COc1ccc2nc3cc([N+](=O)[O-])ccc3c(NCCCN(C)C)c2c1: 45.4
- CC1=Cc2cccc(C)c2C(=O)C1=O: 94.5
- Nc1ccc(S(=O)(=O)CCCl)cc1: 18.5
- C[C@H]1CC(=O)[C@@]2(O)C#C/C=C\C#C[C@@H]3Nc4c(cc(O)c5c4C(=O)c4ccccc4C5=O)[C@]24O[C@]314: 85.2
- Oc1ccc(C(O)CN2CCCC2)cc1O (stereo not drawn): -0.1
- COc1ccc2nc3cc(Cl)ccc3c(Nc3ccccc3-c3ccccc3Nc3c4ccc(Cl)cc4nc4ccc(OC)cc34)c2c1: -18.1
- O=C(NC1c2ccccc2Oc2ccccc21)OCCI: 37.6
- O=C1CSC(c2ccc([N+](=O)[O-])cc2)N1c1ccc(-n2c(-c3ccccc3)nc3ccccc3c2=O)cc1 (stereo not drawn): 15.2
- COc1ccc(C=NCC(OC)OC)cc1OCc1ccccc1: 14
- CCCc1[nH]n(-c2ccccc2)c(=O)c1N=Nc1cccc(C(F)(F)F)c1: -7.3
- COc1ccc2oc3c(OC)c(OC)c(OC)cc3c(=O)c2c1: -4.95
- N#CC1=C(NC(N)=O)CCCC1: 10.7
- Cc1ccc(C2OC3=C(Nc4ccc([N+](=O)[O-])cc4N3)C2=O)cc1 (stereo not drawn): 8.65
- CCOC(=O)N1CCN(C(=O)CC(C)=O)CC1: -0.15
- COc1cc(N(Cc2ccc3nc(OC)c(OC)nc3c2)Cc2ccc3nc(OC)c(OC)nc3c2)cc(OC)c1OC: -19.4
- CCSc1nnc(SCC)c2c1ncn2CC: 26.4
- CNNC(=O)C(O)C(C)(C)CO (stereo not drawn): -4.3
- COc1nc2nccnc2c(=O)n1C: -16.5
- CCOC(=O)c1c[nH]n(-c2ccccc2)c1=O: -4.75
- CN(C)C(Cc1cnc[nH]1)C(=O)N1CCCC1C(N)=O (stereo not drawn): -9.65
- COC(=O)Nn1c(C)c(C(=O)OC)c(C(=O)Nc2ccccc2)c1-c1ccccc1: -5.2
- CCC(c1cccc(C(=O)O)c1)C(C(C)=O)c1ccc(O)cc1 (stereo not drawn): -6.1
- CC(C)N(CC(C)(C)O)C(=O)c1ccccc1: 17.1
- O=C(O)c1ccc(Nc2c3ccccc3nc3ccccc23)cc1: 37.3
- O=C(c1ccccc1)C(Oc1ccccc1)c1ccccc1 (stereo not drawn): 37.8
- COc1cc(C2c3cc4c(c(OC5OC(CO)C(O)C5O)c3CC3COC(=O)C32)OCO4)cc(OC)c1OC (stereo not drawn): 17.9
- C(=N\N1CN(/N=C/c2ccccc2)C(c2ccccc2)C1c1ccccc1)/c1ccccc1 (stereo not drawn): 4.5
- O=C(Cc1nc2ccccc2o1)C(=O)Nc1cccc(Cl)c1: -1.95
- OCCCCC(O)CO (stereo not drawn): -1.1
- Cc1cc(N)ccc1-c1cc(C)c(N)c(C)c1C: -7.8
- Nc1ccc(C(=O)O)cc1N: 15.4
- C1CN(C23OC4(N5CCOCC5)C5C6CC(C7C6C4C72)C53)CCO1 (stereo not drawn): -3.9
- NNC(=O)c1c(O)ccc2ccccc12: 23.4
- COC1OC(COC(=O)c2ccc([N+](=O)[O-])cc2)C2SC12 (stereo not drawn): 1.8
- Cc1ccc([N+](=O)[O-])cc1NC(=O)Oc1ccc(Cl)cc1Cl: -10.9
- COc1cccc2c(SC)c(C)[nH]c12: 18.8
- OC1(c2nccc3ccccc23)CCN(CCc2ccccc2)CC1: 55.8
- CCOC(=O)C(NC(C)=O)(Nc1ccc(S(N)(=O)=O)cc1)C(F)(F)F (stereo not drawn): 3.95
- C1=NC(c2ccccc2)=CN(C2CCCCCCCCCCC2)C1(c1ccccc1)C1CCCCCCCCCCC1 (stereo not drawn): -12
- CC(C)OC(=O)Oc1cccc(OC(=O)OC(C)C)c1: 2.15
- COC(=O)c1[nH]nc(-c2ccccc2)c1N: -12.8
- N=c1oc(-c2ccccc2)cc2ccccc12: -12.3
- O=C1c2scc(-c3ccc(F)cc3)c2-n2cccc21: 7.6
- Clc1ccc2[nH]ncc2c1: -5.9
- CC1(C)Oc2ccccc2OC1O (stereo not drawn): -1.75
- CCN(CC)CCNC(=O)c1cc(N2CCOCC2)ccn1: 18.5
- CCCOC(=O)CCCC(=O)N(C(C)C)C(C)C: 12.2

----------
Catalogue of molecules with associated growth inhibition
- Method description: NCI Yeast Anticancer Drug Screen. Data for the bub3 strain (AID 167)
- Assay context: S. cerevisiae bub3 mutant strain, hits give high values; at 50.0 µM unless noted
Compounds without any hit were thinned out: in the full panel of roughly 79,000, 15% have a hit.
Measure: growth inhibition (%)

- CCSC(SCC)=C1C(=O)N(c2ccccc2)N=C1C: 8.6
- Cc1ccc(C2=Nc3cc(C)c(Cl)cc3S(=O)(=O)NN2)cc1: -18.5
- O=c1c2cncnc2sc2nc3ccccc3n12: 15.3
- S=c1sc2c(s1)SCCCCSCCCCSc1sc(=S)sc1SCCCCSCCCCS2: 6.75
- CC(C)CCC[C@@H](C)C1CCC2[C@@H]3CCC4C[C@@H](CCC=C(c5cc(Cl)c(O)c(C(=O)O)c5)c5cc(Cl)c(O)c(C(=O)O)c5)CC[C@]4(C)C3CC[C@@]21C (stereo not given in full): 8.5

----------
Catalogue of molecules with associated growth inhibition
- Method description: NCI Yeast Anticancer Drug Screen. Data for the rad50 strain (AID 155);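 also: 0% = growth of vehicle-only cultures of the same strain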
- Assay context: S. cerevisiae rad50 strain growth inhibition, hits give high values; at 50.0 µM unless noted
About 79,000 compounds went through this panel and 15% of them were active in at least one assay; those are over-represented in the sample as a whole.
Measure: growth inhibition (%)

• OC/C(Br)=C(\Br)CO = -34.3
• O=C1OCC(c2ccccc2)=C1c1ccccc1 = 22.3
• CCCCCCCC(=O)Nc1cccc(O)c1 = 4.8
• CCCOC(CCC(=O)NC(C)(C)C)CC(=O)NC(C)(C)C (stereo not given) = 5.85
• CN(C)c1nc(S(C)(=O)=O)nc2nc(Cl)[nH]c12 = 6.2
• CC(C)N(CCO)CC(O)Cn1cnc2ncnc(N)c21 (stereo not given) = 2.15
• O=C(Cc1nc2ccccc2s1)C(=O)Nc1cccc(C(F)(F)F)c1 = -4.95
• CC(C)/C(Cl)=N/OC(=O)Nc1ccc(F)c(Cl)c1 = 37.4
• c1ccc(CN(Cn2cccn2)Cn2cccn2)nc1 = 7.15
• ClB1NB(Cl)NB(Cl)N1 = -9.45
• N#Cc1[nH]c(=O)n(-c2ccccc2)c1N = -40.2
• C=CCC1(CN(C)C)CC/C(=C\c2cc(OC)c(OC)c(OC)c2)C1=O (stereo not given) = -8.7
• O=C1OCC=C1Sc1ccccc1 = -1.7
• O=[n+]1c2c(n([O-])c3ccccc31)CCCCCCCCCC2 = -52.6
• O=C(O)CNC(=S)SCC(=O)O = -2.4
• O=C(O)CCC(CC(=O)O)C(=O)O (stereo not given) = 19.1
• CN(C)N1C(=O)S/C(=C\c2ccc([N+](=O)[O-])cc2)C1=O = -24.4
• CCCc1[nH]n(-c2ccccc2)c(=O)c1N=Nc1cccc(C(F)(F)F)c1 = -10.7
• COc1cccc(C(=O)c2ccncc2C)c1OC = -14.6
• COc1ccc(/C=C2\N=C3N(Cc4ccccc4)C=C(N)N3C2=O)cc1 = 2.65
• CCOC(=O)C(=CNc1ccc(OC)cc1[N+](=O)[O-])C(=O)OCC = 11.7
• CC(C)=CC(=O)CC1(C)CCC(c2ccoc2)O1 (stereo not given) = -18.8
• CC1(C)CC([NH-])(C(=O)O)CC(C)(C)N1O.CC1(C)CC([NH-])(C(=O)O)CC(C)(C)N1O.[Zn+2] = -1.45
• COc1cc(C2c3cc4c(c(OC5OC(CO)C(O)C5O)c3CC3COC(=O)C32)OCO4)cc(OC)c1OC (stereo not given) = 34.4
• NC(CSS(=O)(=O)O)=NCCCOCc1ccccc1 = 15.4

Just for reference, PubChem BioAssay (NCI) is where these values come from.
